Numbers sourced from patent US11912737B2.

target: [35S]-TBPS binding, rat brain cortical membranes; test: Steroid inhibition of [35S]-TBPS binding; conditions: 3 nM [35S]-TBPS, in the presence of 5 μM GABA
pIC50: −log10 of the molar value.
Some compounds, each annotated with its measured pIC50.

[[record]]
compound = "CC[C@@]1(O)CC[C@H]2[C@@H](CC[C@@H]3[C@@H]2CC[C@]2(C)[C@@H](C(=O)CN4CCN(S(C)(=O)=O)CC4)CC[C@@H]32)C1 [Entry 33]"
value = "6.30 to 7.00"

[[record]]
compound = "C[C@]12CC[C@H]3[C@@H](CC[C@@H]4C[C@@](O)(CF)CC[C@@H]43)[C@@H]1CC[C@@H]2C(=O)CN1CCOCC1 [Entry 46]"
value = "≤ 6.30"

[[record]]
compound = "CO[C@H]1C[C@H]2[C@@H](CC[C@@H]3[C@@H]2CC[C@]2(C)[C@@H](C(=O)CN4CCOCC4)CC[C@@H]32)C[C@]1(C)O [Entry 41]"
value = "≤ 6.30"

[[record]]
compound = "CC(=O)N1CCN(CC(=O)[C@H]2CC[C@H]3[C@@H]4CC[C@H]5C[C@](C)(O)[C@H](C)C[C@@H]5[C@H]4CC[C@]23C)CC1 [Entry 20]"
value = "6.30 to 7.00"


Below: the item to evaluate.
Sample C[C@@]1(O)CC[C@H]2[C@H](CC[C@@H]3[C@@H]2CC[C@]2(C)[C@@H](C(=O)CN4CCNCC4)CC[C@@H]32)C1 [Entry 23] ; pIC50 observed: ≤ 6.30

###

biological target: [35S]-TBPS binding, rat brain cortical membranes; test: Steroid inhibition of [35S]-TBPS binding; conditions: 3 nM [35S]-TBPS, in the presence of 5 μM GABA
Some compounds, each annotated with its measured IC50.

Study these solved cases before continuing.
[[record]]
compound = "C[C@@]1(O)CC[C@H]2[C@@H](CC[C@@H]3[C@@H]2CC[C@]2(C)[C@@H](C(=O)CN4CCCC(O)C4)CC[C@@H]32)C1 (stereo partly drawn)"
study_target = "[35S]-TBPS binding, rat brain cortical membranes"
parameter = "IC50"
value = "≥ 500 nM"

[[record]]
compound = "C[C@]12CC[C@H]3[C@@H](CC[C@H]4C[C@@](O)(CF)CC[C@@H]43)[C@@H]1CC[C@@H]2C(=O)CN1CCOCC1"
study_target = "[35S]-TBPS binding, rat brain cortical membranes"
parameter = "IC50"
value = "≥ 500 nM"

[[record]]
compound = "C[C@H]1CN(CC(=O)[C@H]2CC[C@H]3[C@@H]4CC[C@@H]5C[C@](C)(O)CC[C@@H]5[C@H]4CC[C@]23C)C[C@H](C)O1"
study_target = "[35S]-TBPS binding, rat brain cortical membranes"
parameter = "IC50"
value = "10 to 50 nM"

[[record]]
compound = "COC[C@@]1(O)CC[C@H]2[C@H](CC[C@@H]3[C@@H]2CC[C@]2(C)[C@@H](C(=O)CN4CCOCC4)CC[C@@H]32)C1"
study_target = "[35S]-TBPS binding, rat brain cortical membranes"
parameter = "IC50"
value = "≥ 500 nM"


Sample CC(=O)N1CCN(CC(=O)[C@H]2CC[C@H]3[C@@H]4CC[C@H]5C[C@](C)(O)[C@@H](C)C[C@@H]5[C@H]4CC[C@]23C)CC1 ; IC50 observed: 100 to 500 nM

Sample C[C@@H]1CCCCN1CC(=O)[C@H]1CC[C@H]2[C@@H]3CC[C@@H]4C[C@](C)(O)CC[C@@H]4[C@H]3CC[C@]12C ; IC50 observed: 100 to 500 nM

Sample COC[C@@]1(O)CC[C@H]2[C@H](CC[C@@H]3[C@@H]2CC[C@]2(C)[C@@H](C(=O)CN4CCN(S(C)(=O)=O)CC4)CC[C@@H]32)C1 ; IC50 observed: 100 to 500 nM

Sample C[C@]12CC[C@H]3[C@@H](CC[C@@H]4C[C@@](O)(C(F)F)CC[C@@H]43)[C@@H]1CC[C@@H]2C(=O)CN1CCOCC1 ; IC50 observed: ≥ 500 nM

Sample COC[C@@]1(O)CC[C@H]2[C@@H](CC[C@@H]3[C@@H]2CC[C@]2(C)[C@@H](C(=O)CN4CCN(S(C)(=O)=O)CC4)CC[C@@H]32)C1 ; IC50 observed: 100 to 500 nM

Sample CC(=O)N1CCN(CC(=O)[C@H]2CC[C@H]3[C@@H]4CC[C@H]5C[C@](C)(O)CC[C@@H]5[C@H]4CC[C@]23C)CC1 ; IC50 observed: 100 to 500 nM

Sample C[C@@]1(O)CC[C@H]2[C@H](CC[C@@H]3[C@@H]2CC[C@]2(C)[C@@H](C(=O)CN4CCC(O)C4)CC[C@@H]32)C1 (stereo partly drawn) ; IC50 observed: 100 to 500 nM

Sample C[C@@]1(O)CC[C@H]2[C@H](CC[C@@H]3[C@@H]2CC[C@]2(C)[C@@H](C(=O)CN4CC(O)C4)CC[C@@H]32)C1 ; IC50 observed: ≥ 500 nM
